- test.details: Volume of distribution at steady state in Non-naive cynomolgus monkey at 5 mg/kg, iv
- Assay type: ADME, organism-based, Macaca fascicularis
- Parameters: dose 5 mg/kg, route intravenous
- test.conditions: in vivo, read-out: Vdss

molecule	Vd
Nc1ccn([C@@H]2O[C@@](CO)(CF)[C@@H](O)[C@H]2F)c(=O)n1	5.6 L/kg
Nc1ccn([C@@H]2O[C@@](CO)(CCl)[C@@H](O)[C@H]2F)c(=O)n1 [ALS-8112]	3 L/kg
CC[C@]1(CO)O[C@@H](n2ccc(N)nc2=O)[C@H](F)[C@@H]1O	1.8 L/kg

----------
- test.details: Clearance in male syrian golden hamster at 5 mg/kg, iv
- Type: ADME, organism-based, Mesocricetus auratus
- Set-up: dose 5 mg/kg, route intravenous
- test.conditions: in vivo

smiles.input	clearance
CC[C@]1(CO)O[C@@H](n2ccc(N)nc2=O)[C@H](F)[C@@H]1O	34.1 mL/min/kg
Nc1ccn([C@@H]2O[C@@](CO)(CCl)[C@@H](O)[C@H]2F)c(=O)n1	28.6 mL/min/kg

----------
- test.details: Cytotoxicity against human HeLa cells assessed as cell viability by CellTiter-Glo luminescent assay
- Type: cell-based

compound	CC50
CCCCC(=O)OC[C@@]1(CCl)O[C@@H](n2ccc(N)nc2=O)[C@H](F)[C@@H]1OC(=O)CCCC	> 100 µM
CCCCCCCC(=O)O[C@H]1[C@@H](F)[C@H](n2ccc(N)nc2=O)O[C@@]1(CO)CCl	> 70 µM
C[C@]1(CO)O[C@@H](n2ccc(N)nc2=O)[C@H](F)[C@@H]1O	> 100 µM
Nc1ccn([C@@H]2O[C@@](CO)(CCl)[C@@H](O)[C@H]2O)c(=O)n1	> 100 µM
CC(C)[C@H](N)C(=O)OC[C@@]1(CCl)O[C@@H](n2ccc(N)nc2=O)[C@H](F)[C@@H]1O	> 100 µM
CC(C)[C@H](N)C(=O)O[C@H]1[C@@H](F)[C@H](n2ccc(N)nc2=O)O[C@@]1(CO)CCl	> 100 µM
Nc1ccn([C@@H]2O[C@@](CO)(CCl)[C@@H](O)[C@@H]2F)c(=O)n1	> 100 µM
CC(C)C(=O)OC[C@@]1(CCl)O[C@@H](n2ccc(N)nc2=O)[C@H](F)[C@@H]1OC(=O)C(C)C [LUMICITABINE]	> 100 µM
Nc1ccn([C@@H]2O[C@@](CO)(CF)[C@@H](O)[C@H]2F)c(=O)n1	> 100 µM

----------
- test.details: Inhibition of Respiratory syncytial virus RNA polymerase in crude RSV RNP complex assessed as inhibition of [33P]CMP incorporation into RNA chain

smiles.input	IC50
C[C@]1(COP(=O)(O)OP(=O)(O)OP(=O)(O)O)O[C@@H](n2ccc(N)nc2=O)[C@H](F)[C@@H]1O	10 nM
CO[C@]1(COP(=O)(O)OP(=O)(O)OP(=O)(O)O)O[C@@H](n2ccc(N)nc2=O)[C@H](F)[C@@H]1O	70 nM
[N-]=[N+]=N[C@]1(COP(=O)(O)OP(=O)(O)OP(=O)(O)O)O[C@@H](n2ccc(N)nc2=O)[C@H](F)[C@@H]1O	100 nM
Nc1ccn([C@@H]2O[C@](CCl)(COP(=O)(O)OP(=O)(O)OP(=O)(O)O)[C@@H](O)[C@H]2O)c(=O)n1	1600 nM
